Target: hMOR (Homo sapiens)
Sequence (P35372 whole entry): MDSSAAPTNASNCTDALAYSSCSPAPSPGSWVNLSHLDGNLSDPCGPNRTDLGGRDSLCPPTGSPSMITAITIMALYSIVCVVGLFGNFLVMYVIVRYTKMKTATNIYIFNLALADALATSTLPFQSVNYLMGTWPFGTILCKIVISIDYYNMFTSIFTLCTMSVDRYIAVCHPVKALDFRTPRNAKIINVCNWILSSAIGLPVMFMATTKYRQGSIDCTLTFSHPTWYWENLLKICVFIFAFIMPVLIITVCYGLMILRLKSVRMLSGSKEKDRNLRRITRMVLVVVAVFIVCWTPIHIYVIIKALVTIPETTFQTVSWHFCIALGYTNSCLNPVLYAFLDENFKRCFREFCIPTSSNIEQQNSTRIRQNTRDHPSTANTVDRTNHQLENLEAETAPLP
Assay: Radioligand binding studies (Example 6) at hMOR
Experimental: For a primary screen of selected molecules, binding to μOR was assessed by measuring competition against the radioligand ^3H-diprenorphine (^3H-DPN). […] To separate free from bound radioligand, reactions were rapidly filtered over Whatman GF/B filters with the aid of a Brandel harvester and ^3H-DPN counts were measured by liquid scintillation. […]
// NB: equality with 0.2 µM counts as 0.0; only Ki strictly below is 1.0

{"compound": "CN(C)[C@H](CNc1c(NCCc2ccccc2)c(=O)c1=O)Cc1ccc(O)cc1 [DD247]", "discrete-label": 0.0}
{"compound": "CC(=O)Oc1ccc(C[C@@H](CNC(=O)N[C@@H](C)Cc2ccsc2)N(C)C)cc1 [DD230]", "discrete-label": 0.0}

(Q) State whether 0.2 µM exceeds Ki recorded for CN(C)[C@H](CNc1nc(=O)cc(Cc2ccccc2)[nH]1)Cc1ccc(O)cc1 [DD258] .
(A) 0.0

(Q) State whether 0.2 µM exceeds Ki recorded for C[C@@H](Cc1ccsc1)NC(=O)NC[C@@H]1Cc2ccc(O)cc2CN1C [DD118] .
(A) 1.0

(Q) State whether 0.2 µM exceeds Ki recorded for COc1ccc(C[C@@H](CNC(=O)N[C@@H](C)Cc2ccsc2)N(C)C)cc1 [DD222] .
(A) 0.0

(Q) State whether 0.2 µM exceeds Ki recorded for C[C@@H](Cc1ccsc1)Nc1c(NC[C@H](Cc2ccc(O)cc2)N(C)C)c(=O)c1=O [DD251] .
(A) 1.0

(Q) State whether 0.2 µM exceeds Ki recorded for COc1cc(F)ccc1CCNC(=O)NC[C@H](Cc1ccc(O)cc1)N(C)C [DD214] .
(A) 1.0

----------
molecular target: humanDOR (Homo sapiens); assay: Receptor binding with [3H]diprenorphine at human DOR; settings: PZM analogs; (n) = number of independent experiments; read-out: binding affinity Ki hDOR
Sequence (P41143 whole entry): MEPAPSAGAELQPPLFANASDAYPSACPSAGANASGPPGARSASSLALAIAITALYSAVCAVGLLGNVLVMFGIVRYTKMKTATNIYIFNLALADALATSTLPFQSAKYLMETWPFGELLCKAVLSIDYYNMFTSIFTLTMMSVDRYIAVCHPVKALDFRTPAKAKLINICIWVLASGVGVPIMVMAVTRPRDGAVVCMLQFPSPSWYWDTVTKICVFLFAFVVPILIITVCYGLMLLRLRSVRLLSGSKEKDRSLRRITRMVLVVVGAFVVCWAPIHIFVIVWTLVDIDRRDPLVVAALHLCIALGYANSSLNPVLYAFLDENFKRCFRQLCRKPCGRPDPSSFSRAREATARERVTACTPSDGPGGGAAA
pKi: −log10 of the molar value.
Classification field: enter Criterion met for pKi values not below 6, Criterion not met for values below it.

Observe how each entry below is paired with its result.
{"molecule": "C[C@H](Cc1ccsc1)NC(=O)NC[C@@H](Cc1ccccc1)N(C)C [drawing 489]", "discrete-label": "Criterion not met"}
{"molecule": "CN(C)[C@H](CNC(=O)NCCc1ccsc1)Cc1ccccc1", "discrete-label": "Criterion not met"}
{"molecule": "Cc1cc(O)cc(C)c1C[C@@H](CNC(=O)N[C@H](C)Cc1ccsc1)N(C)C [drawing 537]", "discrete-label": "Criterion met"}
{"molecule": "C[C@H](Cc1ccsc1)NC(=O)NC[C@@H](Cc1ccc(O)cc1)N(C)C", "discrete-label": "Criterion not met"}
{"molecule": "C[C@@H](Cc1ccsc1)NC(=O)NC[C@H](Cc1ccccc1)N(C)C [drawing 492]", "discrete-label": "Criterion not met"}

# next molecule below
(Q) Identify whether the reported pKi of the following molecule is 6 or greater: CN(C)[C@H](CNC(=O)NC1Cc2ccccc2C1)Cc1ccc(O)cc1 [drawing 526]
(A) Criterion met

----------
molecular target: μOR (Homo sapiens); assay: cell-based; assay type: cell-based; conditions: Gi/o EC50 nM
// reported EC50 for each item listed
Could you give me the number in nM? Just the number is fine.

Consider the worked cases shown below.
{"molecule": "CN(C)[C@H](CNC(=O)NC(C)(C)Cc1ccccc1)Cc1ccc(O)cc1 [DD 33L]", "subject-of-test": "μOR (Homo sapiens)", "unit-string": "nM", "assay-value": 98.1}
{"molecule": "CN(C)[C@H](CNC(=O)NCCc1ccsc1)Cc1ccc(O)cc1", "subject-of-test": "μOR (Homo sapiens)", "unit-string": "nM", "assay-value": 7.55}
{"molecule": "CN(C)[C@H](CNC(=O)NCCc1ccccc1)Cc1ccc(O)cc1", "subject-of-test": "μOR (Homo sapiens)", "unit-string": "nM", "assay-value": 4.25}
{"molecule": "CN(C[C@H](Cc1ccc(O)cc1)N(C)C)C(=O)NCCc1ccccc1", "subject-of-test": "μOR (Homo sapiens)", "unit-string": "nM", "assay-value": 35.1}
{"molecule": "C[C@@H](Cc1csc2ccccc12)NC(=O)NC[C@H](Cc1ccc(O)cc1)N(C)C [DD63L-B]", "subject-of-test": "μOR (Homo sapiens)", "unit-string": "nM", "assay-value": 5.7}
{"molecule": "CN(CCc1ccccc1)C(=O)NC[C@H](Cc1ccc(O)cc1)N(C)C", "subject-of-test": "μOR (Homo sapiens)", "unit-string": "nM", "assay-value": 37.9}
{"molecule": "CN(CC1CC1)[C@H](CNC(=O)NCCc1ccccc1)Cc1ccc(O)cc1", "subject-of-test": "μOR (Homo sapiens)", "unit-string": "nM", "assay-value": 559}
{"molecule": "C[C@@H](Cc1ccccc1)NC(=O)NC[C@H](Cc1ccc(O)cc1)N(C)C [DD 61L-B]", "subject-of-test": "μOR (Homo sapiens)", "unit-string": "nM", "assay-value": 35.5}

Consider the additional molecule presented here.
Case C[C@H](NC(=O)NC[C@H](Cc1ccc(O)cc1)N(C)C)c1ccccc1 [DD 53LS] , μOR (Homo sapiens), EC50 recorded as 3.08
